Hey, just so you know, these numbers are from paper PMC9029707.

Tgt: SeSSB (single-stranded DNA-binding protein) (Salmonella enterica serovar Typhimurium …, UniProt P0A2F6 1-176)
Sequence (P0A2F6 whole entry): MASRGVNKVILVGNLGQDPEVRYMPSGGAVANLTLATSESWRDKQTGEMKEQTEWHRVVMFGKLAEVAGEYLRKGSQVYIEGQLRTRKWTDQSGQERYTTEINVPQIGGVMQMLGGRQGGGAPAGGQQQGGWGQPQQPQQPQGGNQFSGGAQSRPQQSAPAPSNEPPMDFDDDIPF
Test Details: EMSA; 37 C, 40 mM Tris-HCl pH 7.5, 50 mM NaCl; protein at 50% bound; dA EMSA: 20 mM Tris-HCl pH 8.0, 100 mM NaCl, 25 C, 30 min, 1.7 nM DNA; dT35 EMSA: 40 mM Tris-HCl pH 7.5, 50 mM NaCl, 37 C, 60 min, 30 fmol/uL DNA; 8% native PAGE in TBE
Condition Context: protein: recombinant; tags: His-tag (pET21b); chain copies: 4; label: biotin (5' per Methods 4.5; 3' per Results 2.5); single strand
Test Readout: Kd (nM)
Your answer is read as nM, so omit the unit and give the number.

What value of Kd has been reported for the following binder? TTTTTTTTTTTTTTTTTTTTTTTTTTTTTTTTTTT (ssDNA) [dT35]
230
